- measured-target: AKT (Homo sapiens, UniProt Q9Y243)
- Construct: Kinases are expressed as either kinase domains or full length constructs; made in house
- Sequence (Q9Y243 whole entry, the tested form may be a part): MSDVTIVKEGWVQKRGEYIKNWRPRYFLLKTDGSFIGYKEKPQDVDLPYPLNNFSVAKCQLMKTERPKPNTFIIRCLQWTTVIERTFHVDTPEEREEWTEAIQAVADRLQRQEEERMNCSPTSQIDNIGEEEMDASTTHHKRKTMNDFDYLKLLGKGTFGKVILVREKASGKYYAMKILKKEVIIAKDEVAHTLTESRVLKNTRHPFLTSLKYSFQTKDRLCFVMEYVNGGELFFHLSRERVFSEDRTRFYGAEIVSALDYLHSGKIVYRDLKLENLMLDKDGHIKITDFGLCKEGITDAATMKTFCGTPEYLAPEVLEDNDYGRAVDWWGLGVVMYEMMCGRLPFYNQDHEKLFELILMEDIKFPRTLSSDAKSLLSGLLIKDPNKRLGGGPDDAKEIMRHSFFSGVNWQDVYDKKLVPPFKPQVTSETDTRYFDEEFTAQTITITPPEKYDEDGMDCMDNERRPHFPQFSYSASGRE
- measurement-description: Kinase inhibition assay (33P transfer), AKT
- Type: biochemical
- measurement-setup: Table 2, class symbols A-E; read-out: AKT3-1
pIC50: −log10 of the molar value.
Below, each entry is listed with its recorded pIC50.

Look over these answered cases.
CNS(=O)(=O)Cc1ccc(Nc2ncnc(Nc3cc(-c4ccc(C(=O)OC)cc4)n[nH]3)n2)cc1 : < 5.04
COc1cc(Nc2ncnc(-c3cccnc3Nc3cccc(C(C)=O)c3)n2)cc(OC)c1OC : < 5.02

The compound listed as COc1cc(Nc2ncnc(-c3cccnc3Nc3cccc(C(F)(F)F)c3)n2)cc(OC)c1OC has a reported pIC50 of < 5.04

Just so you know, measured pIC50 for c1ccc(Nc2ncccc2-c2ncnc(Nc3ccc(N4CCOCC4)cc3)n2)cc1 came out at < 4.98

The recorded pIC50 for entry CCN(CC)CCN(C)c1ncnc(Nc2ccc(OC)c(OC)c2)n1 equals < 4.90

The reported pIC50 of the compound COc1cc(Nc2ncnc(-c3cccnc3N[C@@H](C)c3ccccc3)n2)cc(OC)c1OC was < 5.01

Value of pIC50 reported for the compound COc1cccc(CCNc2ncnc(Nc3ccc4c(cnn4Cc4ccccc4)c3)n2)c1OC is < 5.03

In plain terms, COC(=O)c1ccc(-c2cc(Nc3ncnc(Nc4cc(F)cc(F)c4)n3)[nH]n2)cc1 has a documented pIC50 of < 4.97

====

- measured-target: c-Met (Homo sapiens, UniProt P08581)
- Construct: Kinases are expressed as either kinase domains or full length constructs; made in house
- Sequence (P08581 25-1390): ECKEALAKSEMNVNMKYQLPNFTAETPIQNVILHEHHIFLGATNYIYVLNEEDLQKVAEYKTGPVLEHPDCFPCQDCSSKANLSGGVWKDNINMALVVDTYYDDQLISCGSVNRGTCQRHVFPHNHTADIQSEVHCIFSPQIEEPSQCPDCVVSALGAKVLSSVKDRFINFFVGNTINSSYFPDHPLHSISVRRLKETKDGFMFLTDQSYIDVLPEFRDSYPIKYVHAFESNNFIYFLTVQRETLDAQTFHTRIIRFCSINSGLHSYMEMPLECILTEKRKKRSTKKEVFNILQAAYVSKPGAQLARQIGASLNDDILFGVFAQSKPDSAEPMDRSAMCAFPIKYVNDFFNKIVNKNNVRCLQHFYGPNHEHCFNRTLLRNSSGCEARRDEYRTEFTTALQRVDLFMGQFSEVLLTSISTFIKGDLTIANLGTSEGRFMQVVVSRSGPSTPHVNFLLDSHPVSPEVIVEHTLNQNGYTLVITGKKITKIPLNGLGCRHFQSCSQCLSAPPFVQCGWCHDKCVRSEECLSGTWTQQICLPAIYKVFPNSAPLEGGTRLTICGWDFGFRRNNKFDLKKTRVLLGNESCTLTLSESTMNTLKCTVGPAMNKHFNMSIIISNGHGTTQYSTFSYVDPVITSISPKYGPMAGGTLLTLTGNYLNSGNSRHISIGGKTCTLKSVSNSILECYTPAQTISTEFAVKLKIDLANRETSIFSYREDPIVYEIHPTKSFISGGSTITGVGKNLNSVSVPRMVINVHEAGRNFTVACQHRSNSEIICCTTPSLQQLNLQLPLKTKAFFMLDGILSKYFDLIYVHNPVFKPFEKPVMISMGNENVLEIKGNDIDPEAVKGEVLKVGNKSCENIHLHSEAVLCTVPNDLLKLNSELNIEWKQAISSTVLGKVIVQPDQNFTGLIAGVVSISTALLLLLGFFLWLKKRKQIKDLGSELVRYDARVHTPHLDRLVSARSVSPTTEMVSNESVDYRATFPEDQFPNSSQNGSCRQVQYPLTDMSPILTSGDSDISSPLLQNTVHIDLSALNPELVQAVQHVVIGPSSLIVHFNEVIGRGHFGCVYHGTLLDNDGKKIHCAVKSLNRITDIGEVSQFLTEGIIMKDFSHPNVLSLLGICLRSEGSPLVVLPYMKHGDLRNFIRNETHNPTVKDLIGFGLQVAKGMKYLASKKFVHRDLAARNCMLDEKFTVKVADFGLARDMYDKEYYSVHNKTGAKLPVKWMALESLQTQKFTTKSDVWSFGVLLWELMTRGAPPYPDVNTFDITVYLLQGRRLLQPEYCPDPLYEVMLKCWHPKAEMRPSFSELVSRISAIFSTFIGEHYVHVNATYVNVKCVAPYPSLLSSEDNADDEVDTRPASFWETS
- measurement-description: Kinase inhibition assay (33P transfer), c-Met
- Format: biochemical
- measurement-setup: Table 2, kinase inhibition class; read-out: Met-1
pIC50: −log10 of the molar value.
measurement-type: pIC50

Some solved entries appear below for comparison.
COc1cc(Nc2ncnc(-n3c(NCCc4ccccc4)nc4ccccc43)n2)cc(OC)c1OC : < 5.04
Brc1cccc(Nc2ncnc(Nc3ccc4c(cnn4Cc4ccccc4)c3)n2)c1 : 5.13 to 5.29
CC(=O)NS(=O)(=O)c1ccc(Nc2ncnc(N(C)c3cccc(Cl)c3)n2)cc1 : < 4.98
O=C(O)Cc1cccc(Nc2ncnc(Nc3cc(-c4ccco4)n[nH]3)n2)c1 : > 5.97
CCN(CC)CCNc1ncnc(N(C)c2cccc(Cl)c2)n1 : < 4.87

So the reported pIC50 for C#Cc1cccc(Nc2ncnc(Nc3ccc(OC)c(OC)c3)n2)c1 , on c-Met (Homo sapiens, UniProt P08581), turned out to be < 4.89

Record COc1cccc(Nc2ncnc(Nc3cc(-c4ccccc4)n[nH]3)n2)c1 ; system c-Met (Homo sapiens, UniProt P08581); pIC50 = 5.18 to 5.95

Per the reported c-Met (Homo sapiens, UniProt P08581) data, O=C(Nc1cccc(Nc2ncnc(-n3c(=O)[nH]c4ccccc43)n2)c1)O[C@@H]1CCOC1 has pIC50 of < 4.98

====

Below, each entry is listed alongside its reported pIC50.
- measured-target: PDGFRB (Homo sapiens)
- Construct: Kinases are expressed as either kinase domains or full length constructs; made in house
- Sequence (P09619 33-1106, species assumed): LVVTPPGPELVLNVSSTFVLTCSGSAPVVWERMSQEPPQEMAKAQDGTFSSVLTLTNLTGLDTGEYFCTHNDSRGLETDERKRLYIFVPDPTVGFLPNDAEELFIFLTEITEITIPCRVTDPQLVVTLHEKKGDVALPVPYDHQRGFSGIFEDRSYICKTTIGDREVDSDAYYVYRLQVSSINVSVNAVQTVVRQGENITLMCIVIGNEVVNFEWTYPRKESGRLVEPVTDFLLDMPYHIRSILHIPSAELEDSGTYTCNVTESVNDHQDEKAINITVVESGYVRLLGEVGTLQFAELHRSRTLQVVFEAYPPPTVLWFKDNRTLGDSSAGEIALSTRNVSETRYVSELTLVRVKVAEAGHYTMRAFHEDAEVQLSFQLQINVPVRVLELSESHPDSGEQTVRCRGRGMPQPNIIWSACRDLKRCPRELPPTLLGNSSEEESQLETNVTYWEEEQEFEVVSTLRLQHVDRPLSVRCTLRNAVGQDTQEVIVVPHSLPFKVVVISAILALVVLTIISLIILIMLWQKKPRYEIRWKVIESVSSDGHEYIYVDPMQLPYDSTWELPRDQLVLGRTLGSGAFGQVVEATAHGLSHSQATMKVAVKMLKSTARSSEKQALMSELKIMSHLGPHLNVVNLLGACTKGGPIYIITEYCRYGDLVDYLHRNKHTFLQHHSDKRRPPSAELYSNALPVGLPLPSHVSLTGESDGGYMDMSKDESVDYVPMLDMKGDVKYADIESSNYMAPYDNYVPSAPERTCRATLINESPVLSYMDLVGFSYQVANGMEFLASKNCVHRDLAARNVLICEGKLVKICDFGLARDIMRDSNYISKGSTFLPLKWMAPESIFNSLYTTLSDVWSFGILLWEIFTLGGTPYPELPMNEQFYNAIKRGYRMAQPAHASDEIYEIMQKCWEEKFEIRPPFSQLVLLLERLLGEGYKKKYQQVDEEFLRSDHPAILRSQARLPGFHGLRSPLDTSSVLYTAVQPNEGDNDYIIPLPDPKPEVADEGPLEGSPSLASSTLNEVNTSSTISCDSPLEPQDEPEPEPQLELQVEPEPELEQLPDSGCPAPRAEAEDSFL
- measurement-description: Kinase inhibition assay (33P transfer), PDGFRB
- Assay type: biochemical
- measurement-setup: read-out: PDGFRB-1
pIC50: −log10 of the molar value.

COc1cc(Nc2ncnc(Nc3cccc(C(F)(F)F)c3)n2)cc(OC)c1OC [Compound 614] : 5.24 to 6.02
COc1cc(Nc2ncnc(-n3c(N[C@@H](CO)c4ccccc4)nc4ccccc43)n2)cc(OC)c1OC [Compound 1036] : > 6.11
COc1cc(Nc2ncnc(-n3c(=O)[nH]c4ccccc43)n2)cc(OC)c1OC [Compound 325] : > 5.99

API: the following record is the query input.
The reported pIC50 of the compound COc1cc(Nc2ncnc(N3CCCC4CCCCC43)n2)cc(OC)c1OC (stereo not shown) [Compound 314] was 5.22 to 6.00

src = patent US7074789B2
